Reference for the values: PubChem BioAssay AID1159580

- protocolNotes: chemical genetic growth profiling, strain panel (AID 1159580);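 note: tested at 20 µM; growth read once vehicle control cultures reached saturation at 30 °C; 1 = growth at the plate median or of vehicle wells; lower values mean less growth of the strain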
- testContext: S. cerevisiae deletion strains, growth OD, locus YDL134C, strain PPH21
In all, about 5,500 compounds went through this assay and about 2,000 (36%) were called active. About 18% were inconclusive and are not listed. Cut-off read from the data, not from the text of the source: active = normalized growth mostly below about 0.91 (no sharp cut-off); inconclusive = no clear call, values can overlap the other calls; inactive = mostly above about 0.92. Some of the results follow.
Return exactly one item of YES = active, NO = inactive

Study these solved cases before continuing.
compound	groupLabel
CC(C)=CCc1c(O)cc2occ(-c3ccc4c(c3)OCO4)c(=O)c2c1O	NO
COc1cc2ccc(=O)oc2c(OC)c1OC	NO

Please share the test call associated with `COc1cc(Cl)c(Cl)cc1Cl` . NO

Please share the test call associated with `CC(=O)CC(C)=Nc1ccc(C(F)(F)F)cc1` . NO

----------
- protocolNotes: chemical genetic growth profiling, strain panel (AID 1159580)
- testContext: S. cerevisiae deletion strains, growth OD, locus YGR040W, strain KSS1
Out of some 5,500 compounds screened, about 2,000 (36%) were called active. Not shown: some 18% with an inconclusive outcome. No stated cut-off is given here; in the data, active means normalized growth mostly below about 0.91 (no sharp cut-off); inconclusive means no clear call, values can overlap the other calls; inactive means mostly above about 0.92. The list shows a part of the results.
Return exactly one item of active, inactive

Study these solved cases before continuing.
compound	groupLabel
O=C(Nc1ccc(Cl)cc1)c1csc([N+](=O)[O-])c1	inactive
N#CC(C#N)=NNc1ccc(C(F)(F)F)cc1	active

Please look at the following compound next.
Please share the test call associated with `N/C(=N/OC(=O)c1ccccc1Cl)c1ccc2nonc2c1` . inactive

----------
- protocolNotes: chemical genetic growth profiling, strain panel (AID 1159580);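 note: tested at 20 µM; growth read once vehicle control cultures reached saturation at 30 °C; 1 = growth at the plate median or of vehicle wells; lower values mean less growth of the strain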
- testContext: S. cerevisiae deletion strains, growth OD, locus YIL073C, strain SPO22
Screen size: about 5,500 compounds; about 2,000 (36%) were called active. Inconclusive results (about 18%) are left out. No stated cut-off is given here; in the data, active means normalized growth mostly below about 0.91 (no sharp cut-off); inconclusive means no clear call, values can overlap the other calls; inactive means mostly above about 0.92. This is one part of the list.
Return exactly one item of t = active, f = inactive

compound	groupLabel
O=c1[nH]c2ccccc2n1C1CCN(CCCC(c2ccc(F)cc2)c2ccc(F)cc2)CC1	t
O=C(CCCN1CC=C(n2c(=O)[nH]c3ccccc32)CC1)c1ccc(F)cc1	f

Please share the test call associated with `CCCc1nc(C(C)(C)O)c(C(=O)OCc2oc(=O)oc2C)n1Cc1ccc(-c2ccccc2-c2nn[nH]n2)cc1` . f

----------
Task for the reader: assign each of the following compounds its reported normalized growth.
- protocolNotes: chemical genetic growth profiling, strain panel (AID 1159580);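 note: tested at 20 µM; growth read once vehicle control cultures reached saturation at 30 °C; 1 = growth at the plate median or of vehicle wells; lower values mean less growth of the strain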
- testContext: S. cerevisiae deletion strains, growth OD, locus YAL026C, strain drs2, active compounds read low
In all, about 5,500 compounds went through this assay and about 2,000 (36%) were called active. Inconclusive results (about 18%) are left out. The list shows a part of the results.
Give bare numbers.

// below: answered compounds
compound	normalized growth
CC(=O)OC1CCC2C3CCc4cc(O)ccc4C3CCC12C (stereo not drawn)	0.96
C[C@H]1C(=O)O[C@@H]2CCN3CC=C(COC(=O)[C@](C)(O)[C@]1(C)O)[C@H]23	0.991

I'm hoping you can list normalized growth for every compound here, please.
1. COc1cc(OC)c(C(C)=O)c(O)c1C
2. CC1(C)S[C@@H]2[C@H](NC(=O)COc3ccccc3)C(=O)N2[C@H]1C(=O)O

0.908
1

----------
- protocolNotes: chemical genetic growth profiling, strain panel (AID 1159580);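 note: tested at 20 µM; growth read once vehicle control cultures reached saturation at 30 °C; 1 = growth at the plate median or of vehicle wells; lower values mean less growth of the strain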
- testContext: S. cerevisiae deletion strains, growth OD, locus YBR160W, strain CDC28, active compounds read low
The campaign covered roughly 5,500 compounds. About 2,000 (36%) were called active. Another 18% or so got no clear call; they are omitted. The list shows a part of the results.
Task for the reader: assign each of the following compounds its reported normalized growth.
Give bare numbers.

// below: answered compounds
compound	quantitativeReadout
Oc1ccc(-n2nnnc2SCc2ccc(OC(F)(F)F)cc2)cc1	0.971
CCOC(=O)C1C(c2ccc(Br)cc2)C(C(=O)OCC)C(O)(C(F)(F)F)NC1(O)C(F)(F)F (stereo unspecified)	0.999
N#C/C(=C\C=C\c1ccccc1)c1nc2ccccc2[nH]1	0.962
O=C(NNc1c(Cl)cccc1Cl)c1ccc([N+](=O)[O-])o1	0.945
N#C/C(=C\c1ccc(C(F)(F)F)cc1)c1ccc(O)cc1	0.976
CCC1(c2ccccc2)OC(c2cc(Cl)cc(Cl)c2O)Nc2ccccc21 (stereo unspecified)	0.964
CN(C)c1nc(=S)ss1	0.882
O=C(OCc1ccc(Oc2ccc(Cl)cc2Cl)c([N+](=O)[O-])c1)c1ccc([N+](=O)[O-])o1	0.97

I'm hoping you can list normalized growth for every compound here, please.
1. Cc1nc(C(F)(F)F)ccc1C(=O)Sc1nnc(-c2ccc(C(F)(F)F)nc2C)o1
2. CCCCc1ccc(N=CNO)c(C)c1
3. NNC(=O)COc1ccc(C2SCCS2)cc1

[0.952, 0.996, 0.96]
